Would you kindly list % inhibition 1 µg/ml, AVERAGE (HUVEC proliferation on coated DLL4) for each of these binders?
Target: DLL4 extracellular domain (R&D systems, catalog #1506-D4/CF) (UniProt Q9NR61 27-529, limits assumed)
Sequence (Q9NR61 27-529 limits assumed): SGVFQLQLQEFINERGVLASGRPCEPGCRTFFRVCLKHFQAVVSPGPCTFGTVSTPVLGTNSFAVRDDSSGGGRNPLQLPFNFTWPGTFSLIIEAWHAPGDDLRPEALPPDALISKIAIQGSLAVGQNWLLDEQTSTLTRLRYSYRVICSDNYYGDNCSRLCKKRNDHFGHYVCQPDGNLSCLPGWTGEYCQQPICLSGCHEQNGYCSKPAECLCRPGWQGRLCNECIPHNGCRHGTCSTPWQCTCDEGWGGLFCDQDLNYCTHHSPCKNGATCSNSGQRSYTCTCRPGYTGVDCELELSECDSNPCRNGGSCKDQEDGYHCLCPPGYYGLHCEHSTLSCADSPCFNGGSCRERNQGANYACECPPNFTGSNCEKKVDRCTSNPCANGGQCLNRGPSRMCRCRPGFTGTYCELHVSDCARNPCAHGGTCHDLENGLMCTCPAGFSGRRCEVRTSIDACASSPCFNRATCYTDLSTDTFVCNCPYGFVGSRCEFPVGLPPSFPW
Assay: cell-based or functional assay
Just the number please, in %, no unit attached.

Query: What value of % inhibition 1 µg/ml, AVERAGE (HUVEC proliferation on coated DLL4) has been recorded for this entry: 12A1 (antibody, IgG4, V domains shown, Fully human; also used where no isotype is printed) VH: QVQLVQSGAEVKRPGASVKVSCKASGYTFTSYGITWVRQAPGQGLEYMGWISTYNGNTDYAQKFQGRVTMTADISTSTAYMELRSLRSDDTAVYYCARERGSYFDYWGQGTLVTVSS VL: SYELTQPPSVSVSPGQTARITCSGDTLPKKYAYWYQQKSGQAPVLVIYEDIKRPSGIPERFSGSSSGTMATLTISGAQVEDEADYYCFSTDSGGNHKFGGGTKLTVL
Response: 56

Query: Which % inhibition 1 µg/ml, AVERAGE (HUVEC proliferation on coated DLL4) is reported for this binder? 17F3 (antibody, IgG2, V domains shown, Fully human; also used where no isotype is printed) VH: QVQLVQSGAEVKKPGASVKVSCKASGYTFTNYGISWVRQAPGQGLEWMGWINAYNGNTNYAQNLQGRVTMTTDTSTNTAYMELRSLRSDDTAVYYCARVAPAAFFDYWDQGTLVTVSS VL: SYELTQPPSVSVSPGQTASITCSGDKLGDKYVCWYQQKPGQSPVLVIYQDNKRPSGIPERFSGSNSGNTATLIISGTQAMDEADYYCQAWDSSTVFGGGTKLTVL
Response: 30
